# SYSTEM NAME: native endogenous human BACE1 (Homo sapiens (Human), UniProt P56817)
# Sequence (P56817 46-501): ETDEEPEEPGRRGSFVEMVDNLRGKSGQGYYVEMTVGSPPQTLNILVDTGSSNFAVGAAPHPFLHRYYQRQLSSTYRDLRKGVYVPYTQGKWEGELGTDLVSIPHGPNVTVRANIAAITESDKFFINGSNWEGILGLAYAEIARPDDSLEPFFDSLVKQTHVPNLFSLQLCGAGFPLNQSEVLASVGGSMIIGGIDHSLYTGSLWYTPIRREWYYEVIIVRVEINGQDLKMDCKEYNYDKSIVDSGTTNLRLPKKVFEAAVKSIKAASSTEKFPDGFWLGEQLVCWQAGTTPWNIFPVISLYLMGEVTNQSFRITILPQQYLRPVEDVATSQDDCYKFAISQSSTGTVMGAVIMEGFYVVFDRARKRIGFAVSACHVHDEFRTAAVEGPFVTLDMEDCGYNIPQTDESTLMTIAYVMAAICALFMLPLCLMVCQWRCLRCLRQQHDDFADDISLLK
# PROTOCOL NOTES: HEK293Swe whole cell assay (Abeta ELISA)
# Assay type: cell-based
# TEST CONDITIONS: HEK293/APP751sw cells, Abeta 1-42; read-out: HEK 293 Swe A-beta (1-42) ELISA IC50
RECORDED ENDPOINT: IC50
Could you give the number and then its unit, please?

Output IC50 of CC(C)(O)c1nc(N2C[C@H]3CSC(N)=N[C@@]3(c3cnccn3)C2)ncc1F.Cl [Example 8, hydrochloride]
395 nM

----------
# SYSTEM NAME: native, endogenous murine BACE1 (Mus musculus (Mouse), UniProt P56818)
# Sequence (P56818 46-501): as the sequence (P56817 46-501) above, with P6S, V162I, L165I, S180T, V182A, I340V, L393A, Q443H counted along it
# PROTOCOL NOTES: PDAPP primary neuronal assay (Abeta ELISA)
# Assay type: cell-based
# TEST CONDITIONS: primary cortical neurons from PDAPP embryos, Abeta 1-40; read-out: PDAPP Neuron A-beta (1-40) ELISA IC50
# Procedure: For in vitro enzymatic and cellular assays, test compounds are prepared in DMSO to make up a 10 mM stock solution. […] A confirmatory whole cell assay is also run in primary neuronal cultures generated from PDAPP transgenic embryonic mice. […] At the end of the incubation, conditioned media are analyzed for evidence of beta-secretase activity, for example, by analysis of Abeta peptides. […]
Counter-ions that a name gives are not always drawn.
RECORDED ENDPOINT: IC50 (nM)
Write the value in nM as a bare number.

Reference set, count: 2
- COMPOUND: "CC(C)(O)c1nc(N2C[C@H]3CSC(N)=N[C@@]3(c3cccnc3)C2)ncc1F [Example 15, hydrochloride]"
  RECORDED NUMBER: 98.2
- COMPOUND: "CC(C)(O)c1nc(N2C[C@H]3CSC(N)=N[C@@]3(c3cnccn3)C2)ncc1F.Cl [Example 8, hydrochloride]"
  RECORDED NUMBER: 455

Kindly review the next compound as well.
Supply IC50 measured with native, endogenous murine BACE1 (Mus musculus (Mouse), UniProt P56818) for CC(C)(O)c1nc(N2C[C@H]3CSC(N)=N[C@@]3(c3ccc(F)cn3)C2)ncc1F [Example 12, hydrochloride] .
109
